# assay: total protein half-life in vivo (active degradation + dilution); higher = more stable protein
# condition_description: wild type E. coli NCM3722; growth: P-lim chemostat; doubling time 12 h
measurement_label: total protein half-life in vivo
# do not omit the unit; it follows the number

### Prompt Quick check: total protein half-life in vivo of `MKTALLLEKLEGQLATLRQRCAPVSQFATLSARFDRHLFQTRATTLQACLDEAGDNLAALRHAVEQQQLPQVAWLAEHLAAQLEAIAREASAWSLREWDSAPPKIARWQRKRIQHQDFERRLREMVAERRARLARVTDLVEQQTLHREVEAYEARLARCRHALEKIENRLARLTR` ?
### Response 5.17 h

### Prompt Quick check: total protein half-life in vivo of MNTDTFMCSSDEKQTRSPLSLYSEYQRMEIEFRAPHIMPTSHWHGQVEVNVPFDGDVEYLINNEKVNINQGHITLFWACTPHQLTDTGTCQSMAIFNLPMHLFLSWPLDKDLINHVTHGMVIKSLATQQLSPFEVRRWQQELNSPNEQIRQLAIDEIGLMLKRFSLSGWEPILVNKTSRTHKNSVSRHAQFYVSQMLGFIAENYDQALTINDVAEHVKLNANYAMGIFQRVMQLTMKQYITAMRINHVRALLSDTDKSILDIALTAGFRSSSRFYSTFGKYVGMSPQQYRKLSQQRRQTFPG [P0ACH8] ?
### Response 4.99 h

### Prompt Quick check: total protein half-life in vivo of `MTELAQLQASAEQAAALLKAMSHPKRLLILCMLSGSPGTSAGELTRITGLSASATSQHLARMRDEGLIDSQRDAQRILYSIKNEAVNAIIATLKNVYCP` ?
### Response 9.02 h

### Prompt Quick check: total protein half-life in vivo of `MRVLIVKTSSMGDVLHTLPALTDAQQAIPGIKFDWVVEEGFAQIPSWHAAVERVIPVAIRRWRKAWFSAPIKAERKAFREALQAENYDAVIDAQGLVKSAALVTRLAHGVKHGMDWQTAREPLASLFYNRKHHIAKQQHAVERTRELFAKSLGYSKPQTQGDYAIAQHFLTNLPTDAGEYAVFLHATTRDDKHWPEEHWRELIGLLADSGIRIKLPWGAPHEEERAKRLAEGFAYVEVLPKMSLEGVARVLAGAKFVVSVDTGLSHLTAALDRPNITVYGPTDPGLIGGYGKNQMVCRAPRENLINLNSQAVLEKLSSL` ?
### Response 10.6 h

### Prompt Quick check: total protein half-life in vivo of MNLQHHFLIAMPALQDPIFRRSVVYICEHNTNGAMGIIVNKPLENLKIEGILEKLKITPEPRDESIRLDKPVMLGGPLAEDRGFILHTPPSNFASSIRISDNTVMTTSRDVLETLGTDKQPSDVLVALGYASWEKGQLEQEILDNAWLTAPADLNILFKTPIADRWREAAKLIGVDILTMPGVAGHA [P0A8W5] ?
### Response 10.2 h

### Prompt Quick check: total protein half-life in vivo of `MKLISNDLRDGDKLPHRHVFNGMGYDGDNISPHLAWDDVPAGTKSFVVTCYDPDAPTGSGWWHWVVVNLPADTRVLPQGFGSGLVAMPDGVLQTRTDFGKTGYDGAAPPKGETHRYIFTVHALDIERIDVDEGASGAMVGFNVHFHSLASASITAMFS` ?
### Response 10.9 h

### Prompt Quick check: total protein half-life in vivo of MTVKQTVEITNKLGMHARPAMKLFELMQGFDAEVLLRNDEGTEAEANSVIALLMLDSAKGRQIEVEATGPQEEEALAAVIALFNSGFDED [P0A9N0] ?
### Response 4.46 h

### Prompt Quick check: total protein half-life in vivo of `MCGRFAQSQTREDYLALLAEDIERDIPYDPEPIGRYNVAPGTKVLLLSERDEHLHLDPVFWGYAPGWWDKPPLINARVETAATSRMFKPLWQHGRAICFADGWFEWKKEGDKKQPFFIYRADGQPIFMAAIGSTPFERGDEAEGFLIVTAAADQGLVDIHDRRPLVLSPEAAREWMRQEISGKEASEIAASGCVPANQFSWHPVSRAVGNVKNQGAELIQPV` ?
### Response 9.67 h

### Prompt Quick check: total protein half-life in vivo of MVDKSQETTHFGFQTVAKEQKADMVAHVFHSVASKYDVMNDLMSFGIHRLWKRFTIDCSGVRRGQTVLDLAGGTGDLTAKFSRLVGETGKVVLADINESMLKMGREKLRNIGVIGNVEYVQANAEALPFPDNTFDCITISFGLRNVTDKDKALRSMYRVLKPGGRLLVLEFSKPIIEPLSKAYDAYSFHVLPRIGSLVANDADSYRYLAESIRMHPDQDTLKAMMQDAGFESVDYYNLTAGVVALHRGYKF [P0A887] ?
### Response 8.77 h

### Prompt Quick check: total protein half-life in vivo of `MERLKRMSVFAKVVEFGSFTAAARQLQMSVSSISQTVSKLEDELQVKLLNRSTRSIGLTEAGRIYYQGCRRMLHEVQDVHEQLYAFNNTPIGTLRIGCSSTMAQNVLAGLTAKMLKEYPGLSVNLVTGIPAPDLIADGLDVVIRVGALQDSSLFSRRLGAMPMVVCAAKSYLTQYGIPEKPADLSSHSWLEYSVRPDNEFELIAPEGISTRLIPQGRFVTNDPMTLVRWLTAGAGIAYVPLMWVINEINRGELEILLPRYQSDPRPVYALYTEKDKLPLKVQVVINSLTDYFVEVGKLFQEMHGRGKEK` ?
### Response 12.7 h

### Prompt Quick check: total protein half-life in vivo of `MTARYIAIDWGSTNLRAWLYQGDHCLESRQSEAGVTRLNGKSPAAVLAEVTTDWREEKTPVVMAGMVGSNVGWKVAPYLSVPACFSSIGEQLTSVGDNIWIIPGLCVSHDDNHNVMRGEETQLIGARALAPSSLYVMPGTHCKWVQADSQQINDFRTVMTGELHHLLLNHSLIGAGLPPQENSADAFTAGLERGLNTPAILPQLFEVRASHVLGTLPREQVSEFLSGLLIGAEVASMRDYVAHQHAITLVAGTSLTARYQQAFQAMGCDVTAVAGDTAFQAGIRSIAHAVAN` ?
### Response 7.85 h

### Prompt Quick check: total protein half-life in vivo of MNTVCTHCQAINRIPDDRIEDAAKCGRCGHDLFDGEVINATGETLDKLLKDDLPVVIDFWAPWCGPCRNFAPIFEDVAQERSGKVRFVKVNTEAERELSSRFGIRSIPTIMIFKNGQVVDMLNGAVPKAPFDSWLNESL [P0AGG4] ?
### Response 4.54 h

### Prompt Quick check: total protein half-life in vivo of `MLARGKTNLKIEEIRMHKHHEIHRVKPLMPALCRIRQGKKVINWETHTLTVDNNQIILFPCGYEFYIENYPEAGLYLAEMLYLPIDLIESFQKLYTVTDQIRNKTSFFLPQNPELIYCWEQLKTSVSRGFSTKIQEHLAMGVLLSLGVNHVNHLLLSYSKQSLISRCYNLLLSEPGTKWTANKVARYLYISVSTLHRRLASEGVSFQSILDDVRLNNALSAIQTTVKPISEIARENGYKCPSRFTERFHNRFNITPREIRKASRE` ?
### Response 5.86 h

###

I'd be grateful if you could share measured total protein half-life in vivo for these entries.
# assay: total protein half-life in vivo (active degradation + dilution); higher = more stable protein
# condition_description: E. coli NCM3722 delta-clpP delta-lon delta-hslV; growth: N-lim chemostat; doubling time 6 h
Report as a plain number; the unit h is understood.

### Prompt Quick check: total protein half-life in vivo of `MKKTAAIISACMLTFALSACSGSNYVMHTNDGRTIVSDGKPQTDNDTGMISYKDANGNKQQINRTDVKEMVELDQ` ?
### Response 5.09

### Prompt Quick check: total protein half-life in vivo of MTEAQRHQILLEMLAQLGFVTVEKVVERLGISPATARRDINKLDESGKLKKVRNGAEAITQQRPRWTPMNLHQAQNHDEKVRIAKAASQLVNPGESVVINCGSTAFLLGREMCGKPVQIITNYLPLANYLIDQEHDSVIIMGGQYNKSQSITLSPQGSENSLYAGHWMFTSGKGLTAEGLYKTDMLTAMAEQKMLSVVGKLVVLVDSSKIGERAGMLFSRADQIDMLITGKNANPEILQQLEAQGVSILRV [P0A9W0] ?
### Response 5.74

### Prompt Quick check: total protein half-life in vivo of MIIYLHGFDSNSPGNHEKVLQLQFIDPDVRLISYSTRHPKHDMQHLLKEVDKMLQLNVDERPLICGVGLGGYWAERIGFLCDIRQVIFNPNLFPYENMEGKIDRPEEYADIATKCVTNFREKNRDRCLVILSRNDEALNSQRTSEELHHYYEIVWDEEQTHKFKNISPHLQRIKAFKTLG [P0A8E1] ?
### Response 4.77

### Prompt Quick check: total protein half-life in vivo of `MAIRLYKLAVALGVFIVSAPAFSHGHHSHGKPLTEVEQKAANGVFDDANVQNRTLSDWDGVWQSVYPLLQSGKLDPVFQKKADADKTKTFAEIKDYYHKGYATDIEMIGIEDGIVEFHRNNETTSCKYDYDGYKILTYKSGKKGVRYLFECKDPESKAPKYIQFSDHIIAPRKSSHFHIFMGNDSQQSLLNEMENWPTYYPYQLSSEEVVEEMMSH` ?
### Response 5.56
